experimentalSystem: Gastrin/cholecystokinin type B receptor (Homo sapiens, UniProt P32239)
Sequence (P32239 whole entry): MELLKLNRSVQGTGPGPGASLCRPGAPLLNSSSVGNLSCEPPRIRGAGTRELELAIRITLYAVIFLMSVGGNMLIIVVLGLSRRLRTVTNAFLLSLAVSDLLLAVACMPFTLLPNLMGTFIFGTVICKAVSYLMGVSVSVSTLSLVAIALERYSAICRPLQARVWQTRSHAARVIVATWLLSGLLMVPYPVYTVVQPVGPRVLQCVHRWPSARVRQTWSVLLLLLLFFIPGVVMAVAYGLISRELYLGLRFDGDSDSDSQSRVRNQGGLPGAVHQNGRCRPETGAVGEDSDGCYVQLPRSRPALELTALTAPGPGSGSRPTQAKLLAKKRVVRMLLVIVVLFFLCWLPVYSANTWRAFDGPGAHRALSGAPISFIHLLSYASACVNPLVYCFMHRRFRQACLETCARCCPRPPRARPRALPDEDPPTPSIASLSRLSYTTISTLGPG
Field: label. Allowed values: true (1) (Ki < 30 nM) or false (0) (Ki >= 30 nM).

Qu. Confirm or reject: Ki of CCCC[C@@H](C(=O)N[C@@H](CC(=O)O)C(=O)N[C@@H](Cc1ccccc1)C(N)=O)N(C)C(=O)[C@H](Cc1c[nH]c2ccccc12)NC(=O)CNC(=O)[C@@H]1CCCN1C(=O)[C@@H](N)Cc1ccc(O)cc1 lies strictly below 30 nM
Ans. true (1)

Qu. I'd appreciate it if you could check whether CCCC[C@H](NC(=O)[C@H](Cc1c[nH]c2ccccc12)NC(=O)CNC(=O)[C@@H](C)NC(=O)[C@@H](N)Cc1ccc(O)cc1)C(=O)N[C@@H](CC(=O)O)C(=O)N[C@@H](Cc1ccccc1)C(N)=O has Ki smaller than 30 nM.
Ans. false (0)

Qu. # check: Ki < 30 nM for CCCC[C@@H](NC(=O)[C@@H](N)Cc1ccc(O)cc1)C(=O)NCC(=O)N[C@H](Cc1c[nH]c2ccccc12)C(=O)N(C)[C@@H](CCCC)C(=O)N[C@@H](CC(=O)O)C(=O)N[C@@H](Cc1ccccc1)C(N)=O
Ans. false (0)

Qu. Identify whether the molecule CCCC[C@H](NC(=O)[C@H](Cc1c[nH]c2ccccc12)NC(=O)CNC(=O)[C@@H](Cc1ccccc1)NC(=O)[C@@H](N)Cc1ccc(O)cc1)C(=O)N[C@@H](CC(=O)O)C(=O)N[C@@H](Cc1ccccc1)C(N)=O records Ki below 30 nM.
Ans. true (1)

Qu. Answer whether the molecule CCCC[C@H](NC(=O)[C@@H](Cc1c[nH]c2ccccc12)NC(=O)CNC(=O)[C@@H](Cc1ccccc1)NC(=O)[C@@H](N)Cc1ccc(O)cc1)C(=O)N[C@@H](CC(=O)O)C(=O)N[C@@H](Cc1ccccc1)C(N)=O has Ki strictly less than 30 nM
Ans. false (0)

Qu. Consider the molecule CCCC[C@@H](C(=O)N[C@@H](CC(=O)O)C(=O)N[C@@H](Cc1ccccc1)C(N)=O)N(C)C(=O)[C@@H](Cc1c[nH]c2ccccc12)NC(=O)CNC(=O)[C@@H](Cc1ccccc1)NC(=O)[C@@H](N)Cc1ccc(O)cc1 . Is its Ki strictly less than 30 nM?
Ans. true (1)

----------
Record form. Attribute: pIC50. Fill in for each entry.
experimentalSystem: Delta-type opioid receptor (Mus musculus, UniProt P32300)
Sequence (P32300 whole entry): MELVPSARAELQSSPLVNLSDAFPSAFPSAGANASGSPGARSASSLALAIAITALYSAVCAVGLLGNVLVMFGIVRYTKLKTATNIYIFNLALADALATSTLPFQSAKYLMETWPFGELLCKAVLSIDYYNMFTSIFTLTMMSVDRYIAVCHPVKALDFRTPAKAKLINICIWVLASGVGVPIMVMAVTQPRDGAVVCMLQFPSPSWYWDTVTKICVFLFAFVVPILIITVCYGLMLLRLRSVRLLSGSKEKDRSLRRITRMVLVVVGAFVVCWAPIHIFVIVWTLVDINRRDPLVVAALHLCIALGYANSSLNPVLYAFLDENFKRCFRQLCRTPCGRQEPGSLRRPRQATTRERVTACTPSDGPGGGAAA
assayExplanation: Agonist activity at delta opioid receptor assessed as inhibition of electrically stimulated ICR mouse vas deferens contraction
Format: functional, tissue-based
Conceptually, pIC50 converts a concentration in mol/L into minus its log10.

// field: pIC50; key: CCCC[C@@H](C(=O)N[C@@H](CC(=O)O)C(=O)N[C@@H](Cc1ccccc1)C(N)=O)N(C)C(=O)[C@H](Cc1c[nH]c2ccccc12)NC(=O)CNC(=O)[C@@H](Cc1ccccc1)NC(=O)[C@@H](N)Cc1ccc(O)cc1 ; value = 7.19

pIC50 recorded for this compound, CCCC[C@H](NC(=O)[C@H](Cc1c[nH]c2ccccc12)NC(=O)CNC(=O)[C@@H](CCCC)NC(=O)[C@@H](N)Cc1ccc(O)cc1)C(=O)N[C@@H](CC(=O)O)C(=O)N[C@@H](Cc1ccccc1)C(N)=O , is 7.64

Kindly note the recorded pIC50 for CCCC[C@@H](C(=O)N[C@@H](CC(=O)O)C(=O)N[C@@H](Cc1ccccc1)C(N)=O)N(C)C(=O)[C@@H](Cc1c[nH]c2ccccc12)NC(=O)CNC(=O)[C@@H](Cc1ccccc1)NC(=O)[C@@H](N)Cc1ccc(O)cc1 , which is 7.62

The recorded pIC50 for entry CCCC[C@H](NC(=O)[C@@H](Cc1c[nH]c2ccccc12)NC(=O)CNC(=O)[C@@H](Cc1ccccc1)NC(=O)[C@@H](N)Cc1ccc(O)cc1)C(=O)N[C@@H](CC(=O)O)C(=O)N[C@@H](Cc1ccccc1)C(N)=O equals 6.77

Reference source: ChEMBL document CHEMBL1147663
